- Tgt: T1, Cft2 (Saccharomyces cerevisiae, UniProt Q12102 1-859)
- T1 sequence: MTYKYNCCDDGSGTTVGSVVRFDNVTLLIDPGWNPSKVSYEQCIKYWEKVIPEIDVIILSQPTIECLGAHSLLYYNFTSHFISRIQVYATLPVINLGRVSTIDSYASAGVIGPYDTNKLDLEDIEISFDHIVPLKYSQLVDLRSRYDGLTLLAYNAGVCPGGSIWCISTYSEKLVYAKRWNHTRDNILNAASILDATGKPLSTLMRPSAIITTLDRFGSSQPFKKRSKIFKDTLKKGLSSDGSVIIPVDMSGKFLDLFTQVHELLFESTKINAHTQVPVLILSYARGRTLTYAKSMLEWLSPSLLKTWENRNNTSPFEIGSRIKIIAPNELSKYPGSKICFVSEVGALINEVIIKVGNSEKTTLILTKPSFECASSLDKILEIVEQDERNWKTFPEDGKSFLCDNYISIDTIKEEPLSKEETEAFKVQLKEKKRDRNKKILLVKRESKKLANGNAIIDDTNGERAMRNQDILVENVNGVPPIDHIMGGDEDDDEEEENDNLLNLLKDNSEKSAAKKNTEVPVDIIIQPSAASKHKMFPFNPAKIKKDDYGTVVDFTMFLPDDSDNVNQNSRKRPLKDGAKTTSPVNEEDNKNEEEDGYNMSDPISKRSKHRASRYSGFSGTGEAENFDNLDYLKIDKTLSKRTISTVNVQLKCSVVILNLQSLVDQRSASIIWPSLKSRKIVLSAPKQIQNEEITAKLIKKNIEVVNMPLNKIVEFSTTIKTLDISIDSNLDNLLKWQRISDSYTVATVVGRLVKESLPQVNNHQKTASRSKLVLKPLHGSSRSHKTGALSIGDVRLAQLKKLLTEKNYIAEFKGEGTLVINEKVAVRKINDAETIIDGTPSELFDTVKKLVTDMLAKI
- Measurement Protocol: EMSA; EMSA: 50 nM RNA, 0.25-4.0 uM protein, protein diluted in 10 mM HEPES pH 7.9, 150 mM NaCl, 0.5 mM Mg(OAc)2, plus 1x loading dye (orange G, glycerol, EDTA); 30 min on ice; native 6% acrylamide/TBE PAGE
- Condition Parameters: protein: recombinant; tags: SII (Cft2-SII) when alone; untagged in CPFpol+Cft2 and CPFcore; label: 5'-FAM
Experimental Endpoint: binding result

INSERT INTO assay_data (binder, reported_measurement) VALUES
  ('UUUUUUUUUUUUUUU (ssRNA) [U15]', 'no binding'),
  ('AAGAACGUUAUUUAUAUUUCAAAUUUUUCUUUUUU (ssRNA) [CYC1d EMSA probe]', 'binds'),
  ('GGGGGGGGGGGGGGG (ssRNA) [G15]', 'binds'),
  ('CCCCCCCCCCCCCCC (ssRNA) [C15]', 'no binding'),
  ('AAAAAAAAAAAAAAA (ssRNA) [A15]', 'no binding');

Value of measured binding result for the entry CGUUAUUUAUAUUUCAAAUUUUUCU (ssRNA) [CYC1f EMSA probe] : binds

All values here come from paper PMC6436931.
